test: MM1S myeloma cell viability, profiling panel, resazurin fluorescence, basal, 24 h, PK04 Diversity Set (AID 1174); details: higher = more signal, called active from +8 up or from −8 down;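 further: MM1S multiple myeloma cell line; test concentration not given here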
measuredParameter: z-score
Please respond with just the number, no unit label.

Sample answers from the record:
[
  {
    "compound": "N#Cc1ccc(C(O)C2C=CC3C(=O)NC(=O)C3N2Nc2ccccn2)cc1 (stereo not given)",
    "valueMeasured": -0.601
  },
  {
    "compound": "CCOC(=O)C1=C[C@@H](C(C)(C)C)N(S(=O)(=O)c2ccc(C)cc2)[C@H]1c1ccccc1Cl",
    "valueMeasured": -0.763
  },
  {
    "compound": "C=CCC(OC(C)=O)[C@@H]1[C@@H](N(Cc2ccc(-c3cccc(C(F)(F)F)c3)o2)C(=O)c2cccc3ccccc23)c2cc(OCCCO)ccc2N1C(=O)c1ccc2ccccc2c1 (stereo not given in full)",
    "valueMeasured": -0.416
  },
  {
    "compound": "COCCOC(=O)N1C(=O)[C@@]2(c3cc(C#CCC(C(=O)OC)C(=O)OC)ccc31)[C@H](C(N)=O)[C@H]1C(=O)O[C@H](c3ccccc3)[C@H](c3ccccc3)N1[C@@H]2c1ccc(OCCO)cc1",
    "valueMeasured": -0.456
  },
  {
    "compound": "COCCOC(=O)N1C(=O)[C@@]2(c3cc(C#CCCO)ccc31)[C@H](c1ccccc1OCCO)N1[C@H](c3ccccc3)[C@H](c3ccccc3)OC(=O)[C@H]1[C@@H]2C(=O)N1CCc2cc(OC)c(OC)cc2C1",
    "valueMeasured": 0.248
  },
  {
    "compound": "C/C=C/CN(C(=O)C#Cc1ccccc1)[C@H](CO[Si](C)(C)C(C)(C)C)c1ccccc1",
    "valueMeasured": 1.79
  }
]

Exam item: Tell us which z-score value is on record for CCCCC(=C=CC[C@H](O)c1ccc(OCCO)cc1)C[C@H](O)c1ccccn1
Marked response: 0.747

Exam item: Tell us which z-score value is on record for Cc1ccc(F)cc1S(=O)(=O)N[C@@H]1CCN(Cc2ccc3[nH]ccc3c2)C1
Marked response: -0.946

Exam item: Tell us which z-score value is on record for CC(C)C[C@@H]1NC(=O)[C@H]2C[C@@H](C(=O)NCCCCCNC(=O)CS)[C@@H](c3ccc(O)cc3)N2C1=O
Marked response: -0.297

Exam item: Tell us which z-score value is on record for C[N+](C)(C)CCCC[C@@H]1NC(=O)[C@H]2C[C@@H](C(=O)NCCCCCNC(=O)CS)[C@@H](c3ccc(O)cc3)N2C1=O
Marked response: 0.469

Exam item: Tell us which z-score value is on record for COc1ccc([Si](C)(C)[C@H]2[C@H](CCO)O[C@@]3(C(=O)N(Cc4ccccc4)c4ccc(N(C=O)c5ccccc5)cc43)[C@@H]2C)cc1
Marked response: -2.24

Exam item: Tell us which z-score value is on record for C=CCNC(=O)[C@H]1[C@@H]2C(=O)O[C@@H](c3ccccc3)[C@@H](c3ccccc3)N2[C@@H](c2ccc(O)cc2)[C@]12C(=O)Nc1ccc(C#CC3=CCCCC3)cc12
Marked response: -2.44

Exam item: Tell us which z-score value is on record for CC(C)CNC(=O)[C@@H]1c2ccccc2C(=O)N(C2Cc3ccccc3C2)[C@H]1c1ccc(CO)cc1
Marked response: 0.76

Exam item: Tell us which z-score value is on record for CCCCC(=C=CC[C@@H](O)c1cccc(OCCO)c1)CCO
Marked response: -0.0452

Exam item: Tell us which z-score value is on record for COC(=O)[C@@]1(Cc2ccc(F)cc2)[C@H]2c3cc(C(=O)N(C)C)n(CCN4CCOCC4)c3C[C@H]2CN1C(=O)c1ccccc1
Marked response: -0.663
